- Tested on: NCI-H82
- PROCEDURE DETAILS: Cell proliferation inhibition assay (PrestoBlue)
- Type: cell-based
- CONDITION DETAILS: Homo sapiens, NCI-H82, 72 h; read-out: Compound 13 IC50 (half-proliferation inhibition concentration)
READOUT TYPE: IC50 (nM)
// note: answer is a bare numeric in nM

Record summary for CCN1CCN(c2cc(Nc3cc(C)[nH]n3)nc(N[C@H]3CCN(C(=O)c4ccc(Cl)cc4F)C3)n2)CC1 [Compound 13] : reported IC50 = 51.7

###

- TEST SYSTEM: human Aurora A (amino acids 123–401) (Homo sapiens, UniProt O14965)
- Construct: N-terminal truncated human Aurora A (amino acids 123–401); GST
- Sequence (O14965 123-401): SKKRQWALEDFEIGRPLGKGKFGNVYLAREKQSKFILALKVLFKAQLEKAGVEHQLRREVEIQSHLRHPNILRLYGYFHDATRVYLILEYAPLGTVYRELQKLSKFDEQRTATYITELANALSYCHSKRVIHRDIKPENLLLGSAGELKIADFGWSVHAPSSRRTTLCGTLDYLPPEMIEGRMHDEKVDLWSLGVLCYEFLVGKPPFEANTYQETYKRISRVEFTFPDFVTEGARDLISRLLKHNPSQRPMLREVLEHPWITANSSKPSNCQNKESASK
- PROCEDURE DETAILS: In vitro inhibition of Aurora A kinase activity (Kinase-Glo Plus Luminescent Kinase assay, ATP consumption)
- CONDITION DETAILS: mean of 2–3 independent determinations ± SD; >100 = inhibition < 50% at 100 nM
READOUT TYPE: pIC50
Please note pIC50 is a logarithmic value: minus log10 of concentration in mol/L. Answer with that number alone.

The recorded pIC50 for "Cc1cc(Nc2cc(N3CC(N(C)C)C3)nc(N[C@H]3CCN(C(=O)c4cccc(Cl)c4F)C3)n2)n[nH]1" is 7.53

According to the records, this molecule "CCN1CCN(c2cc(Nc3cc(C)[nH]n3)nc(N[C@H]3CCN(C(=O)c4ccc(Cl)cc4C)C3)n2)CC1" displays pIC50 of 7.19

Noted for "Cc1cc(Nc2cc(N3CCN(C)CC3)nc(N[C@H]3CCN(C(=O)c4cccc(Cl)c4F)C3)n2)n[nH]1" : its pIC50 reads 7.59

Reported pIC50 of "CCN1CCN(c2cc(Nc3cc(C)[nH]n3)nc(N[C@H]3CCN(C(=O)c4c(F)cc(Cl)cc4F)C3)n2)CC1" : 7.25

For reference, reported pIC50 for "CCN1CCN(c2cc(Nc3cc(C)[nH]n3)nc(N[C@H]3CCN(C(=O)c4ccc(Cl)cc4)C3)n2)CC1" stands at 7.37
